System: KOCHIA
assay.explanation: Test E
Type: in vivo, Kochia scoparia
condition.summary: POSTEMERGENCE 0500 GM/HA
Would you kindly list plant response for each of these compounds?
Numbers only, in %.

Would you mind listing plant response for each of the following compounds?
1. C=C(c1ccccc1)C(O)(Cn1cncn1)c1ccc(F)cc1F (stereo not shown)
2. C=C(c1ccc(F)cc1)C(O)(Cn1cncn1)c1ccc(F)cc1F (stereo not shown)
3. C=C(c1ccc(F)cc1)C(O)(Cn1cncn1)c1ccccc1F (stereo not shown)
4. C=C(c1ccccc1)C(O)(Cn1cncn1)c1ccc(Cl)cc1 (stereo not shown)

70
90
70
0

---

Please provide measured pest or weed control at 1000 g/ha for the entries that follow.
System: WATER PLAINTAIN
assay.explanation: Test C rice paddy
Type: in vivo, Alisma trivale
condition.summary: 504 h; 1000 G/HA, 21 days; read-out: plant response
Hi, when you answer, please include the unit after the number. Thanks!

C=C(c1ccc(F)cc1)C(O)(Cn1ncnc1I)c1ccc(F)cc1F (centres unmarked): 0%
C=C(c1ccccc1)C(O)(Cn1cncn1)c1ccc(Cl)cc1Cl (centres unmarked): 0%
C=C(c1ccc(Cl)cc1Cl)C(O)(Cn1cncn1)c1ccccc1F (centres unmarked): 80%
C=C(c1ccccc1Cl)C(O)(Cn1cncn1)c1ccc(F)cc1F (centres unmarked): 60%

Next up:
Given the molecule C=C(c1ccc(Cl)cc1)C(O)(Cn1cncn1)c1ccccc1F (centres unmarked) , what is its reported pest or weed control at 1000 g/ha? 0%

---

Provide the recorded pest or weed control at 1000 g/ha for the entries that follow.
System: RICE JAP EFF
assay.explanation: Test C rice paddy
Type: in vivo, Japonica rice
condition.summary: Oryza sativa, 504 h; 1000 G/HA, 21 days; read-out: plant response
Description: Sixteen cm diameter Airlite plastic pots were partially filled with Tama slit loam soil and the soil saturated with water. Japonica and Indica rice seedlings a the 2.0 to 2.5 leaf stage were transplanted into 1/3 of the pots. Into another third of the pots were transplanted seedling or sprouted tubers of water plantain (Alisma trivale), Scripus (Scirpus paludosus), Cyperus (Cyperus esculentus), and arrowhead (Sagittaria spp.). […]
Answers are plain numbers, in %.

C=C(c1ccc(F)cc1)C(O)(Cn1ncnc1S)c1ccc(F)cc1F (centres unmarked): 40

Items follow; give pest or weed control at 1000 g/ha for each.
1. C=C(c1ccccc1Cl)C(O)(Cn1cncn1)c1ccc(F)cc1F (centres unmarked)
2. C=C(c1ccc(Cl)cc1Cl)C(O)(Cn1cncn1)c1ccccc1F (centres unmarked)
3. C=C(c1ccccc1)C(O)(Cn1cncn1)c1ccc(Cl)cc1Cl (centres unmarked)

20
50
70

// batch mode: one pest or weed control at 1000 g/ha value per listed entry
1. C=C(c1ccccc1Cl)C(O)(Cn1cncn1)c1ccc(Cl)cc1Cl (centres unmarked)
2. C=C(c1cccc(F)c1)C(O)(Cn1cncn1)c1ccc(F)cc1F (centres unmarked)
3. C=C(c1ccc(Cl)cc1)C(O)(Cn1cncn1)c1ccccc1F (centres unmarked)
4. C=C(c1ccc(F)cc1)C(O)(Cn1ncnc1I)c1ccc(F)cc1F (centres unmarked)

60
70
0
60

---

Tested on: Plasmorpara viticola
assay.explanation: Example I grape downy mildew
Assay type: in vivo
condition.summary: read-out: disease control rating, Ex. I
Assign pest or weed control at 100 ppm to each entry below.
Numbers only, in %.

C=C(c1cccc(Cl)c1)C(O)(Cn1cncn1)c1ccccc1F (stereo not drawn): 25
C=C(c1cccc(Cl)c1)C(O)(Cn1cncn1)c1ccc(Cl)c(Cl)c1 (stereo not drawn): 87
C=C(c1ccccc1)[C@](O)(Cn1cncn1)c1ccc(F)cc1: 0
OC(Cn1cncn1)(c1ccc(F)cc1)C1(c2ccccc2)CO1 (stereo not drawn): 0
C=C(c1ccc(Cl)cc1Cl)C(O)(Cn1cncn1)c1ccc(F)cc1 (stereo not drawn): 83
C=C(c1ccccc1)C(O)(Cn1cncn1)c1ccc(Cl)s1 (stereo not drawn): 0
C=C(c1cccc(Cl)c1)C(O)(Cn1cncn1)c1ccc(F)cc1F (stereo not drawn): 23
C=C(c1ccccc1Cl)C(O)(Cn1cncn1)c1ccccc1Cl (stereo not drawn): 26
C=C(c1ccc(F)cc1)C(O)(Cn1cncn1)c1ccccc1 (stereo not drawn): 20
C=C(CO)C(O)(Cn1cncn1)c1ccc(Br)cc1 (stereo not drawn): 0

For the 8 compounds below, give their pest or weed control at 100 ppm values.
1. C=C(c1ccc(C(F)(F)F)cc1)C(O)(Cn1cncn1)c1ccc(F)cc1 (stereo not drawn)
2. C=C(c1ccc(F)cc1)C(O)(Cn1cncn1)c1ccc(Cl)c(Cl)c1 (stereo not drawn)
3. C=C(c1ccc(S(C)(=O)=O)cc1)C(O)(Cn1cncn1)c1ccc(F)cc1 (stereo not drawn)
4. C=C(c1cccc(Cl)c1)C(O)(Cn1cncn1)c1ccc(Cl)cc1 (stereo not drawn)
5. C=C(c1cccc(Cl)c1)C(O)(Cn1cncn1)c1ccc(Cl)cc1Cl (stereo not drawn)
6. C=C(CN(C)C)C(O)(Cn1cncn1)c1ccc(Br)cc1 (stereo not drawn)
7. C=C(c1ccc(F)cc1)C(O)(Cn1cncn1)c1ccc(Cl)cc1Cl (stereo not drawn)
8. C=C(c1ccc(C)cc1)C(O)(Cn1cncn1)c1ccc(F)cc1 (stereo not drawn)

1. 0
2. 46
3. 0
4. 100
5. 0
6. 0
7. 99
8. 0

---

System: Pyricularia oryzae
assay.explanation: whole plant or invertebrate
Assay type: in vivo
condition.summary: Pyricularia oryzae, 120 h, read-out: disease control rating, Ex. E, 20 PPM
Please go through the items and note down their pest or weed control at 20 ppm.
One number for each entry, in %.

C=C(c1ccc(C(F)(F)F)cc1)C(O)(Cn1cncn1)c1ccc(Cl)cc1 (centres unmarked): 0

I'm hoping you can list pest or weed control at 20 ppm for every compound here, please.
1. C=C(c1ccccc1Cl)C(O)(Cn1cncn1)c1ccc(Cl)c(Cl)c1 (centres unmarked)
2. C=C(c1cccc(F)c1)C(O)(Cn1cncn1)c1ccc(Cl)cc1 (centres unmarked)
3. C=C(c1ccc(SC)cc1)C(O)(Cn1cncn1)c1ccc(F)cc1F (centres unmarked)
4. C=C(c1ccccc1Cl)C(O)(Cn1cncn1)c1ccc(Cl)cc1Cl (centres unmarked)

0
0
5
0

---

Tested on: Candida albicans ATCC 11651
assay.explanation: In vivo systemic Candida infection in mice, primary assay
Set-up: species or system Candida albicans; CF-1 female mice
condition.summary: Candida albicans, ATCC11651, 504 h, 150 mg/kg per day, day 21; read-out: % Survival
recorded.metric: responders at 150 mg/kg (%)
Give bare numbers, in %.

C=C(c1ccc(Cl)cc1)C(O)(Cn1cncn1)c1ccc(Cl)c(Cl)c1 (stereo not drawn): 0
OC(Cn1cncn1)(c1ccc(F)cc1)C1(c2ccccc2)CO1 (stereo not drawn): 20
C=C(c1ccccc1Cl)C(O)(Cn1cncn1)c1ccc(Cl)c(Cl)c1 (stereo not drawn): 0

I have 5 compounds here; please give me responders at 150 mg/kg for each one.
1. C=C(c1ccc(F)cc1F)C(O)(Cn1cncn1)c1ccc(F)cc1 (stereo not drawn)
2. C=C(c1ccc(C(C)(C)C)cc1)C(O)(Cn1cncn1)c1ccc(F)cc1 (stereo not drawn)
3. C=C(c1ccccc1Cl)C(O)(Cn1cncn1)c1ccc(Cl)cc1Cl (stereo not drawn)
4. C=C(c1ccc(Cl)cc1Cl)C(O)(Cn1cncn1)c1ccc(F)cc1 (stereo not drawn)
5. C=C(c1cccc(Cl)c1)C(O)(Cn1cncn1)c1ccc(Cl)c(Cl)c1 (stereo not drawn)

10
10
100
40
20

Provide reported responders at 150 mg/kg for each item, in the same order as listed.
1. C=C(c1ccc(Cl)cc1Cl)C(O)(Cn1cncn1)c1ccc(Cl)cc1 (stereo not drawn)
2. C=C(c1ccccc1F)C(O)(Cn1cncn1)c1ccc(F)cc1 (stereo not drawn)
3. C=C(c1ccc(F)cc1)C(O)(CCCC)Cn1cncn1 (stereo not drawn)
4. C=C(c1ccccc1)C(O)(Cn1cncn1)c1ccc(F)cc1 (stereo not drawn)
5. CC=C(c1ccccc1)C(O)(Cn1cncn1)c1ccc(F)cc1 (stereo not drawn)
6. C=C(c1ccccc1C(F)(F)F)C(O)(Cn1cncn1)c1ccc(F)cc1 (stereo not drawn)
7. C=C(c1ccc(F)cc1)C(O)(Cn1cncn1)c1ccc(-c2ccccc2)cc1 (stereo not drawn)

1. 60
2. 0
3. 0
4. 60
5. 20
6. 40
7. 0

// for each compound below, give its responders at 150 mg/kg
1. C=C(c1ccc(Cl)cc1)C(O)(Cn1cncn1)c1ccccc1Cl (stereo not drawn)
2. C=C(CN(C)C)C(O)(Cn1cncn1)c1ccc(Cl)cc1Cl (stereo not drawn)
3. C=C(c1ccccc1Cl)C(O)(Cn1cncn1)c1ccc(F)cc1F (stereo not drawn)
4. C=C(c1cccc2ccccc12)C(O)(Cn1cncn1)c1ccc(F)cc1 (stereo not drawn)
5. C=C(c1ccc(Cl)cc1)C(O)(Cn1cncn1)c1ccc(F)cc1 (stereo not drawn)

60
30
90
0
50

// input: 7 compounds below; output: responders at 150 mg/kg for each
1. C=C(c1ccc(F)cc1)C(Cn1cncn1)(OC(C)=O)c1ccc(F)cc1 (stereo not drawn)
2. C=C(c1ccc(F)cc1)C(O)(Cn1cncn1)c1ccc(F)cc1 (stereo not drawn)
3. C=C(c1ccc(Cl)cc1)C(O)(Cn1cncn1)c1ccccc1F (stereo not drawn)
4. C=C(c1cccc(C(F)(F)F)c1)C(O)(Cn1cncn1)c1ccc(F)cc1 (stereo not drawn)
5. C=C(c1ccc(Cl)cc1)C(O)(Cn1cncn1)c1cccc(C(F)(F)F)c1 (stereo not drawn)
6. C=C(c1ccc(F)cc1)C(O)(Cn1cncn1)c1ccc(Cl)cc1 (stereo not drawn)
7. C=C(c1ccccc1)C(O)(Cn1cncn1)c1cc(Cl)cc(Cl)c1 (stereo not drawn)

[90, 80, 100, 40, 0, 60, 0]

Can you give me responders at 150 mg/kg for all of these, one by one?
1. C=C(c1ccccc1Cl)C(O)(Cn1cncn1)c1ccccc1Cl (stereo not drawn)
2. C=C(c1cccc(F)c1)C(O)(Cn1cncn1)c1ccc(F)cc1 (stereo not drawn)
3. C=C(c1ccccc1Cl)C(O)(Cn1cncn1)c1ccc(Cl)cc1 (stereo not drawn)

1. 100
2. 60
3. 100

From: patent US4965280A
